- Protocol Notes: physchem
- Applied Conditions: pH 7.2, Solubility Conc., pH 7.2; vehicle 10 mM phosphate
Positions of bridges follow the written chain, without caps; N, C: chain ends. Non-standard residues stand in square brackets, D forms with d. Residues, ends and D or L forms follow the SMILES beside them. *: point of attachment. Lys(CH2CO2H)2 = N[C@@H](CCCCN(CC(=O)O)CC(=O)O)C(=O)O; X1 = O=C(O)CCCCCCCCCCCCCCCCC(=O)NCCOCCOCCN*; Dab = NCC[C@H](N)C(=O)O
Measured Quantity: solubility (µM)
// return numeric value only (unit: µM, not printed)

CC(=O)N[C@H]1CCCCNC(=O)C[C@@H](C(=O)N2CCC[C@H]2C(=O)N[C@@H](CO)C(=O)N[C@@H](CO)C(=O)N[C@@H](CO)C(=O)N[C@@H](CCCCN(CC(=O)O)CC(=O)O)C(=O)N[C@@H](CO)C(=O)N[C@@H](CO)C(=O)NCCOCCOCCNC(=O)CCCCCCCCCCCCCCCCC(=O)O)NC(=O)[C@H](Cc2c[nH]c3ccccc23)NC(=O)[C@H](CCCNC(=N)N)NC(=O)[C@@H](Cc2ccccc2)NC(=O)[C@H](Cc2c[nH]cn2)NC1=O [Example 53] (Ac-KH[dF]RWDPSSS[Lys(CH2CO2H)2]SS-X1; lactam 1-6) :: 337

# input for lookup
Lookup: Given the entry CC(=O)N[C@H]1CCNC(=O)C[C@@H](C(=O)N2CCC[C@H]2C(=O)N[C@@H](CO)C(=O)N[C@@H](CO)C(=O)N[C@@H](CO)C(=O)N[C@@H](CCCCN(CC(=O)O)CC(=O)O)C(=O)N[C@@H](CO)C(=O)N[C@@H](CO)C(=O)NCCOCCOCCNC(=O)CCCCCCCCCCCCCCCCC(=O)O)NC(=O)[C@H](Cc2c[nH]c3ccccc23)NC(=O)[C@H](CCCNC(=N)N)NC(=O)[C@@H](Cc2ccccc2)NC(=O)[C@H](Cc2c[nH]cn2)NC1=O [Example 3] (Ac-[Dab]H[dF]RWDPSSS[Lys(CH2CO2H)2]SS-X1; lactam 1-6) , report its measured solubility.
Found: 401

---

- Protocol Notes: physchem
- Applied Conditions: pH 4.4, Solubility Conc.
Positions of bridges follow the written chain, without caps; N, C: chain ends. Non-standard residues stand in square brackets, D forms with d. Residues, ends and D or L forms follow the SMILES beside them. Groups on a side chain read outwards from the residue. *: point of attachment. Lys(CH2CO2H)2 = N[C@@H](CCCCN(CC(=O)O)CC(=O)O)C(=O)O; C16 diacid = O=C(O)CCCCCCCCCCCCCCC(=O)*; hCys = N[C@@H](CCS)C(=O)O; AEEA = NCCOCCOCC(=O)O
Measured Quantity: solubility (µM)
The answer is to be given in µM; state only the numeric part.

Lookup: Give the measured solubility of CC(=O)N[C@H]1CCSSC[C@@H](C(=O)N2CCC[C@H]2C(=O)N2CCC[C@H]2C(=O)N[C@@H](CO)C(=O)N[C@@H](CCC(=O)O)C(=O)N[C@@H](CCCCN(CC(=O)O)CC(=O)O)C(=O)N[C@@H](CCCCNC(=O)COCCOCCNC(=O)CCCCCCCCCCCCCCC(=O)O)C(N)=O)NC(=O)[C@H](Cc2c[nH]c3ccccc23)NC(=O)[C@H](CCCNC(=N)N)NC(=O)[C@@H](Cc2ccccc2)NC(=O)[C@H](Cc2c[nH]cn2)NC1=O [Example 70] (Ac-[hCys]H[dF]RWCPPSE[Lys(CH2CO2H)2]K([AEEA-C16 diacid])-NH2; disulfide 1-6) .
Found: 40

---

- Protocol Notes: physchem
- Applied Conditions: pH 6.6, Solubility Conc., pH 6.6; vehicle 10 mM phosphate
Positions of bridges follow the written chain, without caps; N, C: chain ends. Non-standard residues stand in square brackets, D forms with d. Residues, ends and D or L forms follow the SMILES beside them. *: point of attachment. Lys(CH2CO2H)2 = N[C@@H](CCCCN(CC(=O)O)CC(=O)O)C(=O)O; X1 = O=C(O)CCCCCCCCCCCCCCCCC(=O)NCCOCCOCCN*
Measured Quantity: solubility
Units required after the number.

Lookup: Returns the measured solubility for the input molecule. Input: CC(=O)N[C@H]1CCCCNC(=O)C[C@@H](C(=O)N2CCC[C@H]2C(=O)N[C@@H](CO)C(=O)N[C@@H](CO)C(=O)N[C@@H](CO)C(=O)N[C@@H](CCCCN(CC(=O)O)CC(=O)O)C(=O)N[C@@H](CO)C(=O)N[C@@H](CO)C(=O)NCCOCCOCCNC(=O)CCCCCCCCCCCCCCCCC(=O)O)NC(=O)[C@H](Cc2c[nH]c3ccccc23)NC(=O)[C@H](CCCNC(=N)N)NC(=O)[C@@H](Cc2ccccc2)NC(=O)[C@H](Cc2c[nH]cn2)NC1=O [Example 53] (Ac-KH[dF]RWDPSSS[Lys(CH2CO2H)2]SS-X1; lactam 1-6)
Found: 82 µM

---

- Protocol Notes: physchem
- Applied Conditions: pH 4.6, Solubility Conc.
Positions of bridges follow the written chain, without caps; N, C: chain ends. Non-standard residues stand in square brackets, D forms with d. Residues, ends and D or L forms follow the SMILES beside them. Groups on a side chain read outwards from the residue. *: point of attachment. Lys(CH2CO2H)2 = N[C@@H](CCCCN(CC(=O)O)CC(=O)O)C(=O)O; C16 diacid = O=C(O)CCCCCCCCCCCCCCC(=O)*; hCys = N[C@@H](CCS)C(=O)O; AEEA = NCCOCCOCC(=O)O
Measured Quantity: solubility (µM)
Answer format: numeric, µM implied, no suffix.

Lookup: Please give the measured solubility for this compound: CC(=O)N[C@H]1CCSSC[C@@H](C(=O)N2CCC[C@H]2C(=O)N2CCC[C@H]2C(=O)N[C@@H](CCCCN)C(=O)N[C@@H](CCC(=O)O)C(=O)N[C@@H](CCCCN(CC(=O)O)CC(=O)O)C(=O)N[C@@H](CCCCNC(=O)COCCOCCNC(=O)CCCCCCCCCCCCCCC(=O)O)C(N)=O)NC(=O)[C@H](Cc2c[nH]c3ccccc23)NC(=O)[C@H](CCCNC(=N)N)NC(=O)[C@@H](Cc2ccccc2)NC(=O)[C@H](Cc2c[nH]cn2)NC1=O [Example 5] (Ac-[hCys]H[dF]RWCPPKE[Lys(CH2CO2H)2]K([AEEA-C16 diacid])-NH2; disulfide 1-6)
Found: 452

---

Listed here are compounds together with their documented solubility.
- Protocol Notes: physchem
- Applied Conditions: pH 7.1, Solubility Conc.
Positions of bridges follow the written chain, without caps; N, C: chain ends. Non-standard residues stand in square brackets, D forms with d. Residues, ends and D or L forms follow the SMILES beside them. Groups on a side chain read outwards from the residue. *: point of attachment. Lys(CH2CO2H)2 = N[C@@H](CCCCN(CC(=O)O)CC(=O)O)C(=O)O; C18 diacid = O=C(O)CCCCCCCCCCCCCCCCC(=O)*; C16 diacid = O=C(O)CCCCCCCCCCCCCCC(=O)*; Orn = NCCC[C@H](N)C(=O)O; AEEA = NCCOCCOCC(=O)O
Lab book: enter the figure in µM, no units written.

Lookup: Please report the recorded solubility for CC(=O)N[C@H]1CCC(=O)NCCC[C@@H](C(=O)N2CCC[C@H]2C(=O)N2CCC[C@H]2C(=O)N[C@@H](CC(=O)O)C(=O)N[C@@H](CCCCN(CC(=O)O)CC(=O)O)C(=O)N[C@@H](CCCCNC(=O)COCCOCCNC(=O)CCCCCCCCCCCCCCC(=O)O)C(N)=O)NC(=O)[C@H](Cc2c[nH]c3ccccc23)NC(=O)[C@H](CCCNC(=N)N)NC(=O)[C@@H](Cc2ccccc2)NC(=O)[C@H](Cc2c[nH]cn2)NC1=O [Example 13] (Ac-EH[dF]RW[Orn]PPD[Lys(CH2CO2H)2]K([AEEA-C16 diacid])-NH2; lactam 1-6) .
Found: 506

Lookup: Now try CC(=O)N[C@H]1CCC(=O)NCCC[C@@H](C(=O)N2CCC[C@H]2C(=O)N2CCC[C@H]2C(=O)N[C@@H](CCCNC(=N)N)C(=O)N[C@@H](CC(=O)O)C(=O)N[C@@H](CCCCN(CC(=O)O)CC(=O)O)C(=O)N[C@@H](CCCCNC(=O)COCCOCCNC(=O)CCCCCCCCCCCCCCC(=O)O)C(N)=O)NC(=O)[C@H](Cc2c[nH]c3ccccc23)NC(=O)[C@H](CCCNC(=N)N)NC(=O)[C@@H](Cc2ccccc2)NC(=O)[C@H](Cc2cnc[nH]2)NC1=O [Example 18] (Ac-EH[dF]RW[Orn]PPRD[Lys(CH2CO2H)2]K([AEEA-C16 diacid])-NH2; lactam 1-6) .
Found: 484

Lookup: Record: CC(=O)N[C@H]1CCC(=O)NCCC[C@@H](C(=O)N2CCC[C@H]2C(=O)N2CCC[C@H]2C(=O)N[C@@H](CC(=O)O)C(=O)N[C@@H](CCCCN(CC(=O)O)CC(=O)O)C(=O)N[C@@H](CCCCNC(=O)COCCOCCNC(=O)CCCCCCCCCCCCCCCCC(=O)O)C(N)=O)NC(=O)[C@H](Cc2c[nH]c3ccccc23)NC(=O)[C@H](CCCNC(=N)N)NC(=O)[C@@H](Cc2ccccc2)NC(=O)[C@H](Cc2c[nH]cn2)NC1=O [Example 26] (Ac-EH[dF]RW[Orn]PPD[Lys(CH2CO2H)2]K([AEEA-C18 diacid])-NH2; lactam 1-6)
Found: 476

The measurements presented in this section are drawn from patent US20130012432A1.
